Assay system: T1, human B7-H4 (purified monomeric recombinant human protein, ACRO biosystems) (human, UniProt Q7Z7D3 29-258, limits assumed, chemically biotinylated (EZ-Link NHS-LC-Biotin) in the yeast display and competition experiments; non-biotinylated in SPR)
T1 construct: Bought recombinant monomeric protein; also called B7x; B7S1
T1 sequence: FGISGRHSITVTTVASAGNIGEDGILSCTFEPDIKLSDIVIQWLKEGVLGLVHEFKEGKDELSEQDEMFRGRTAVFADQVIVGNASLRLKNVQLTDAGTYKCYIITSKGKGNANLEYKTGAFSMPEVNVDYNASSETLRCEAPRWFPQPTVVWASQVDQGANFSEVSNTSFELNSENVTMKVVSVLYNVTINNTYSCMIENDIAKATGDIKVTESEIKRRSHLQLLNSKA
Protocol notes: SPR (Carterra LSA); scFv-Fc captured on anti-human IgG Fc, antigen injected
pKd: −log10 of the molar value.
The following binders are shown together with reported pKd values.

1. A06 scFv-Fc (scFv, V domains shown, Tested as scFv-Fc fusion (human IgG1 Fc, vector pDNL9) in crude yeast supernatant; Combo 1 library) VH: EVQLVESGGGVVQPGRSLRLSCAASGFTFGDRAMNWVRQAPGKGLEWVSAISGTGATTYYADSVKGRFTISRDNSKNTLYLQMNSLRAEDTAVYYCARKRWYGMDVWGQGTTVTVSS VL: SYELTQPPSVSVAPGKTARITCGGNNIVTKSVHWYQQKPGQAPVLVVYDDSDRPSGIPERFSGSNSGNTATLTISRVEAGDEADYYCQVWDRGMIFGTGTKLTVL: ≥ 10.47

Requested read-out: pKd. Entry: Parental (H6.1) scFv-Fc (scFv, V domains shown, Expressed with the 24 clones as scFv-Fc fusion (human IgG1 Fc) in yeast for SPR; also called parental antibody; parental molecule) VH: EVQLVESGGGVVQPGRSLRLSCAASGFTFSSYSMNWVRQAPGKGLEWVSAISGSGGSTYYADSVKGRFTISRDNSKNTLYLQMNSLRAEDTAVYYCARKRWYGMDVWGQGTTVTVSS VL: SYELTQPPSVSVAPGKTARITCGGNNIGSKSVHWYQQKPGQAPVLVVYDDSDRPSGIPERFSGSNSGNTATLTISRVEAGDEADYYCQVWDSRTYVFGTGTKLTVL
8.13

Could you share which pKd value was measured for G05 scFv-Fc (scFv, V domains shown, Tested as scFv-Fc fusion (human IgG1 Fc, vector pDNL9) in crude yeast supernatant; Combo 1 library; also called G5) VH: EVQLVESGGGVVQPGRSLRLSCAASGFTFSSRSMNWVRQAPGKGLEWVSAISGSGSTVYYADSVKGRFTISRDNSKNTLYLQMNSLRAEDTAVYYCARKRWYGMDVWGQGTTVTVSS VL: SYELTQPPSVSVAPGKTARITCGGNKLGDKWVHWYQQKPGQAPVLVVYEDVDRPSGIPERFSGSNSGNTATLTISRVEAGDEADYYCQVWDSRTYVFGTGTKLTVL ?
≥ 10.20
